- target of assay: NAD-dependent protein deacetylase sirtuin-2 (Homo sapiens) (UniProt Q8IXJ6)
- Sequence (Q8IXJ6 whole entry, the tested form may be a part): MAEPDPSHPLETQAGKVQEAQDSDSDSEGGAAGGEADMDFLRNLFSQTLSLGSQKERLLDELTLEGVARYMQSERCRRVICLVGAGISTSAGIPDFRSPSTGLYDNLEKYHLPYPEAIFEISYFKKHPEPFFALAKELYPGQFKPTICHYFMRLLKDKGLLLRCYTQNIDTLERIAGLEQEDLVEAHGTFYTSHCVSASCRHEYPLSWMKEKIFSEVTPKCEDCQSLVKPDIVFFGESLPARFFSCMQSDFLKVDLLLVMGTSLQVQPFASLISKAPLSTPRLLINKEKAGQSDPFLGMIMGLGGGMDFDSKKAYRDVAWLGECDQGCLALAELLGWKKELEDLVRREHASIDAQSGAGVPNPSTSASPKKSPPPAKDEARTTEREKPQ
- test method notes: Inhibition of N-terminal his6-tagged human SIRT2 (25 to 389 amino acids) using ZMAL as substrate at 50 uM after 4 hrs by fluorescence-based microplate reader method
So basically: inhibition at 40% or higher? That is 1 (yes). Lower than 40%? That is 0 (no).

Given Nc1ccccc1SCC(=O)Nc1ncc(Cc2cccc3ccccc23)s1 , state whether its inhibition is at least 40%. 0 (no)

Further cases:
Given Cc1cc(O)nc(SCC(=O)Nc2ncc(Cc3cccc4ccccc34)s2)n1 , state whether its inhibition is at least 40%. 0 (no)

Given Cc1cc(C)nc(SCC(N)=O)n1 , state whether its inhibition is at least 40%. 0 (no)
